# assaySystem: mouse transferrin receptor (mTfR) (Mus musculus, UniProt Q62351 89-763)
# Sequence (Q62351 89-763): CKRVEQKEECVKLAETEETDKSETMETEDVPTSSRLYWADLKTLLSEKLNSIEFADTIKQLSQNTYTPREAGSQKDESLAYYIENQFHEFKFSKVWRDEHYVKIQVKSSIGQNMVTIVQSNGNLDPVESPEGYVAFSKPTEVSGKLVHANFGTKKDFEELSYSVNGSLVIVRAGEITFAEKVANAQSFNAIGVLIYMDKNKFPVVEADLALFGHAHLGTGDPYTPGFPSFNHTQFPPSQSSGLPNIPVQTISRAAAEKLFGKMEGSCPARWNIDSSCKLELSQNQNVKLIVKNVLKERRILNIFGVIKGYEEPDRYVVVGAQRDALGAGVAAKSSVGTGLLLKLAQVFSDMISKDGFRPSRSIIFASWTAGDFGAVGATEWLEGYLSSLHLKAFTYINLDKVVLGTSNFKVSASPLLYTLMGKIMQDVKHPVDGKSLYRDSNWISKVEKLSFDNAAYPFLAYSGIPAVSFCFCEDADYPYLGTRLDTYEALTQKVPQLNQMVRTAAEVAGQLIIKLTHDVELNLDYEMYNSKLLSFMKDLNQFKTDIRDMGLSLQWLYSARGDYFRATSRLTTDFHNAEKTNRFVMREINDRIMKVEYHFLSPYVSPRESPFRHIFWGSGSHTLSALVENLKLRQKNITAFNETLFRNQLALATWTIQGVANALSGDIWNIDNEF
# testSummary: fluorescence anisotropy
readoutKind: pKd
In simple prose, pKd is minus the logarithm base ten of a concentration in moles per litre.

-- ask What value of pKd has been recorded for this entry: GCGTGTGCACACGGTCACTTAGTATCGCTACGTTCTTTGGTTCCGTTCGG (structured_DNA, 5' amino C6 linker) [GS24 (equilibrium mixture A-1F:A-2F 20:80)]
-- reply 6.60
